molecular target: LY6C1 (Ly6c1, C57BL/6J mouse, splice variant 1) (mouse (C57BL/6J)); assay: AAV library bound to Ly6c1-transfected HEK293T cells, NGS
Each record is given Y if its reported fold enrichment (log2) is strictly below 2 log2. Records at or above 2 log2 are given N.

- substance: "AAV9 K449R 7-mer variant RIDNPFK"
  cat: "Y"
- substance: "AAV9 K449R 7-mer variant TRFGSST"
  cat: "N"
- substance: "AAV9 K449R 7-mer variant EIRGYSS"
  cat: "N"
- substance: "AAV9 K449R 7-mer variant NSPGWSS"
  cat: "N"
- substance: "AAV9 K449R 7-mer variant SQKTPFL"
  cat: "Y"
- substance: "AAV9 K449R 7-mer variant MRTLMSS"
  cat: "N"
- substance: "AAV9 K449R 7-mer variant NLKRPFA"
  cat: "Y"
- substance: "AAV9 K449R 7-mer variant TSFKPFP"
  cat: "Y"
- substance: "AAV9 K449R 7-mer variant GVDRPFK"
  cat: "Y"
- substance: "AAV9 K449R 7-mer variant SSEKPFQ"
  cat: "Y"
- substance: "AAV9 K449R 7-mer variant WRQGYAS"
  cat: "N"
- substance: "AAV9 K449R 7-mer variant TRFGAST"
  cat: "N"
- substance: "AAV9 K449R 7-mer variant MERYGSS"
  cat: "N"
- substance: "AAV9 K449R 7-mer variant HTQGYST"
  cat: "N"
- substance: "AAV9 K449R 7-mer variant AADRPFL"
  cat: "Y"
- substance: "AAV9 K449R 7-mer variant LRGGYST"
  cat: "N"
- substance: "AAV9 K449R 7-mer variant TLAYPFK"
  cat: "Y"
- substance: "AAV9 K449R 7-mer variant DTKWSSS"
  cat: "N"
- substance: "AAV9 K449R 7-mer variant TDTRPFI"
  cat: "Y"
- substance: "AAV9 K449R 7-mer variant DRIHGYS"
  cat: "N"
- substance: "AAV9 K449R 7-mer variant TKSTPFI"
  cat: "Y"
- substance: "AAV9 K449R 7-mer variant TRTGYST"
  cat: "N"
- substance: "AAV9 K449R 7-mer variant EDHRYSS"
  cat: "N"
- substance: "AAV9 K449R 7-mer variant ASSKPFL"
  cat: "Y"
- substance: "AAV9 K449R 7-mer variant ESSKPFR"
  cat: "Y"
- substance: "AAV9 K449R 7-mer variant TEKWTSS"
  cat: "N"
- substance: "AAV9 K449R 7-mer variant NMERPFR"
  cat: "Y"
- substance: "AAV9 K449R 7-mer variant KDKFKDI"
  cat: "Y"

----------
As shown below, each of these substances has a reported fold enrichment (log2) value.
target: LY6C1 (Ly6c1, C57BL/6J mouse, splice variant 1) (mouse (C57BL/6J)) (UniProt P0CW02); assay: AAV library bound to Ly6c1-transfected HEK293T cells, NGS
reported property: fold enrichment (log2)

- substance: "AAV9 K449R 7-mer variant VKGGYSS"
  readout value: 3.3
- substance: "AAV9 K449R 7-mer variant VAVFKNV"
  readout value: -0.91
- substance: "AAV9 K449R 7-mer variant SIARPFV"
  readout value: -3.55
- substance: "AAV9 K449R 7-mer variant IRQGYSS"
  readout value: 2.61
- substance: "AAV9 K449R 7-mer variant SLSKPFS"
  readout value: -2.08
- substance: "AAV9 K449R 7-mer variant IRVGYST"
  readout value: 3.46
- substance: "AAV9 K449R 7-mer variant LKTGMSS"
  readout value: 2.74
- substance: "AAV9 K449R 7-mer variant VYPGYST"
  readout value: 2.21
- substance: "AAV9 K449R 7-mer variant HEHRYST"
  readout value: 3.06
- substance: "AAV9 K449R 7-mer variant VPRYGSS"
  readout value: 3.55
- substance: "AAV9 K449R 7-mer variant IVRGLSS"
  readout value: 3.24
- substance: "AAV9 K449R 7-mer variant LKYGTST"
  readout value: 4.88
- substance: "AAV9 K449R 7-mer variant TRTSGAS"
  readout value: 3.85
- substance: "AAV9 K449R 7-mer variant MRTFGSA"
  readout value: 3.97
- substance: "AAV9 K449R 7-mer variant DMERPFK"
  readout value: -3.91
- substance: "AAV9 K449R 7-mer variant PYQGASS"
  readout value: 5.24
- substance: "AAV9 K449R 7-mer variant TRNGYST"
  readout value: 5.58
- substance: "AAV9 K449R 7-mer variant GDNRPFK"
  readout value: 0.57
- substance: "AAV9 K449R 7-mer variant ALHVPFK"
  readout value: 0.26
- substance: "AAV9 K449R 7-mer variant HKTHYSS"
  readout value: 3.24
- substance: "AAV9 K449R 7-mer variant SKSGYSA"
  readout value: 2.14
- substance: "AAV9 K449R 7-mer variant ALAKPFI"
  readout value: -0.19
- substance: "AAV9 K449R 7-mer variant IATGYSQ"
  readout value: 2.18
- substance: "AAV9 K449R 7-mer variant SEGRPFI"
  readout value: -3.55
- substance: "AAV9 K449R 7-mer variant QTLFKNI"
  readout value: -0.72
- substance: "AAV9 K449R 7-mer variant LYAGRSS"
  readout value: 4.13
- substance: "AAV9 K449R 7-mer variant GKTGYST"
  readout value: 2.93
- substance: "AAV9 K449R 7-mer variant LKKGYST"
  readout value: 2.96
- substance: "AAV9 K449R 7-mer variant EKKQYSS"
  readout value: 4.45
- substance: "AAV9 K449R 7-mer variant DKYNFSS"
  readout value: 3.43
- substance: "AAV9 K449R 7-mer variant TGTSPFK"
  readout value: -3.32
- substance: "AAV9 K449R 7-mer variant LNRGSST"
  readout value: 4.15
- substance: "AAV9 K449R 7-mer variant NDQRPFL"
  readout value: -4.33
- substance: "AAV9 K449R 7-mer variant VTHGYSS"
  readout value: 3.25
- substance: "AAV9 K449R 7-mer variant NKVGYST"
  readout value: 3.13
- substance: "AAV9 K449R 7-mer variant RLSFKDV"
  readout value: -1.62
- substance: "AAV9 K449R 7-mer variant ESRGFSS"
  readout value: 4.7
- substance: "AAV9 K449R 7-mer variant LSMGYST"
  readout value: 2.97
- substance: "AAV9 K449R 7-mer variant FLPGYSS"
  readout value: 2.54
- substance: "AAV9 K449R 7-mer variant SYQGYSS"
  readout value: 5.21
- substance: "AAV9 K449R 7-mer variant PPSFKNV"
  readout value: -4.33
- substance: "AAV9 K449R 7-mer variant DRKGYSA"
  readout value: 2.77
- substance: "AAV9 K449R 7-mer variant SHTKPFA"
  readout value: 0.97
- substance: "AAV9 K449R 7-mer variant SIYLGSQ"
  readout value: 4.47

----------
target: LY6A (Ly6a, C57BL/6J mouse) (mouse (C57BL/6J)) (UniProt P05533); assay: AAV library bound to Ly6a-transfected HEK293T cells, NGS
reported property: fold enrichment (log2)

- substance: "AAV9 K449R 7-mer variant VAVFKNV"
  reported property: "fold enrichment (log2)"
  readout units: "log2"
  readout value: 4.23
- substance: "AAV9 K449R 7-mer variant STTFKDI"
  reported property: "fold enrichment (log2)"
  readout units: "log2"
  readout value: 3.44
- substance: "AAV9 K449R 7-mer variant GESRPFI"
  reported property: "fold enrichment (log2)"
  readout units: "log2"
  readout value: 3.32
- substance: "AAV9 K449R 7-mer variant SHTKPFA"
  reported property: "fold enrichment (log2)"
  readout units: "log2"
  readout value: 4.79
- substance: "AAV9 K449R 7-mer variant EKKQYSS"
  reported property: "fold enrichment (log2)"
  readout units: "log2"
  readout value: 0.89
- substance: "AAV9 K449R 7-mer variant TQQGYSS"
  reported property: "fold enrichment (log2)"
  readout units: "log2"
  readout value: -0.92
- substance: "AAV9 K449R 7-mer variant SKGSYST"
  reported property: "fold enrichment (log2)"
  readout units: "log2"
  readout value: 1.54
- substance: "AAV9 K449R 7-mer variant RLSFKDV"
  reported property: "fold enrichment (log2)"
  readout units: "log2"
  readout value: 2.39
- substance: "AAV9 K449R 7-mer variant DVKYGSS"
  reported property: "fold enrichment (log2)"
  readout units: "log2"
  readout value: -0.36
- substance: "AAV9 K449R 7-mer variant NDQRPFL"
  reported property: "fold enrichment (log2)"
  readout units: "log2"
  readout value: 3.27
- substance: "AAV9 K449R 7-mer variant GGRGLSS"
  reported property: "fold enrichment (log2)"
  readout units: "log2"
  readout value: 2
- substance: "AAV9 K449R 7-mer variant SNDRPFI"
  reported property: "fold enrichment (log2)"
  readout units: "log2"
  readout value: 5.43
- substance: "AAV9 K449R 7-mer variant GKTHGYS"
  reported property: "fold enrichment (log2)"
  readout units: "log2"
  readout value: 1.65
- substance: "AAV9 K449R 7-mer variant LWAKGST"
  reported property: "fold enrichment (log2)"
  readout units: "log2"
  readout value: 1.42
- substance: "AAV9 K449R 7-mer variant QDKGYSS"
  reported property: "fold enrichment (log2)"
  readout units: "log2"
  readout value: -3.55
- substance: "AAV9 K449R 7-mer variant LRTAYSS"
  reported property: "fold enrichment (log2)"
  readout units: "log2"
  readout value: 1.13
- substance: "AAV9 K449R 7-mer variant TRTGYST"
  reported property: "fold enrichment (log2)"
  readout units: "log2"
  readout value: 0.89
- substance: "AAV9 K449R 7-mer variant KTQFKDV"
  reported property: "fold enrichment (log2)"
  readout units: "log2"
  readout value: 2.09

Reference source: patent US20220143214A1
